- procedure-text: protein stability index of a GFP-peptide fusion (GPS, HEK-293T) (PSI 1-6); higher = more stable;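 further: 24-mer peptide tiles fused after GFP, lentivirally expressed, FACS-sorted into six equal bins by GFP/DsRed ratio, decoded by Illumina sequencing, PSI is the read-weighted mean bin number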
- experimental-conditions: treatment: MLN4924 1 uM, 8 h; c terminus: a fixed tail appended
Each entry gets n if its protein stability index stays under 3, and y if its protein stability index is 3 or above.

ordered-residues | category-label
GLLDLNNAILQLVKKYKSMKLEKE [ESRRG] | n
MEREFNNLLALGTDRKLDDGDDKV [PPFIA4] | y
GVLDALHVLEGLFRTDPEAKVKLV [ZSWIM9] | n
MEPGGARLRLQRTGGLGGERERQP [SOAT2] | y
HGVELHSDVIEYAKQKLDFFIRTS [PCMTD2] | n

[Q] Entry FAYLEDLHSEFDEQHGKKVPTVSR [SEC22B] : is its protein stability index no less than 3?
[A] y

[Q] Another: HSHPPEIKDQGGAGEGLVRSANGF [MAP2]
[A] y

[Q] Can you check VMYTIHMGCHGFRDPFECNMCGYH [IKZF1] next?
[A] n

[Q] And then IDQWSMLGDMQTAREGAGLVVASG [KLHL12] , what is it?
[A] y

[Q] Thanks! And MCSTLEHNCAHFCINIPGSYVCRC [MATN2] ?
[A] y

[Q] Follow-up item: KINAWDLYYYMTQTEELKYSIDQE [NLN]
[A] n

[Q] Request: RKIQFNFPYFRSDRDKRDFVSAGA [CLCN6]
[A] n

[Q] Do the same for GREEKCVWKHGITPPLKNVRKKRF [TAF7L] please
[A] y

[Q] Item: PLFTPQSPVTATLSDEDDGFVDLL [CDC25A]
[A] y
